Below: a set of entries, each annotated with reported growth.
test system: MDA-MB-435 melanoma; assay: NCI-60 one-dose screen, 48 h (100 = growth as untreated, 0 = no growth, -100 = all killed); details: 10 µM
This is part of a sample that, as a whole, favours compounds with a hit. Of some 83,000 tested, about 20% had one in any assay. Activity calls are given as the source filed them. Rule for the calls: active = growth percent below 10; inactive = the rest.

Sample answers from the record:
[[record]]
compound = "CCN(CC)Cc1cc(Nc2ccnc3cc(Cl)ccc23)ccc1OC"
measured_on = "MDA-MB-435 melanoma"
measured_quantity = "growth"
value_measured = "77.9% (inactive)"

[[record]]
compound = "CN(CCc1ccccn1)c1ccccc1"
measured_on = "MDA-MB-435 melanoma"
measured_quantity = "growth"
value_measured = "120% (inactive)"

[[record]]
compound = "O=C(N/N=C/c1ccccc1)C(Oc1ccccc1)c1ccccc1 (centres undefined)"
measured_on = "MDA-MB-435 melanoma"
measured_quantity = "growth"
value_measured = "44% (inactive)"

[[record]]
compound = "Nc1c(C(=O)Nc2ccccc2)sc2nc3c(cc12)CCCC3"
measured_on = "MDA-MB-435 melanoma"
measured_quantity = "growth"
value_measured = "-30.6% (active)"


Input line: State recorded growth with MDA-MB-435 melanoma, entry COc1cc(Cl)cc(-c2nn(-c3cccc(NC(=O)Nc4ccc(Cl)c(Cl)c4)c3)cc2-c2ccncc2)c1 , no comment.
Output line: 0.46% (active)

Input line: State recorded growth with MDA-MB-435 melanoma, entry C[C@@H]1C=C2C(=O)O[C@@H]3CC[C@H](C1)[C@]23O , no comment.
Output line: 57.7% (inactive)

Input line: State recorded growth with MDA-MB-435 melanoma, entry CCN(CC)CCNC(=O)c1ccc(NC(C)=O)cc1 , no comment.
Output line: 101% (inactive)

Input line: State recorded growth with MDA-MB-435 melanoma, entry NC(=O)c1ccc(-c2cccc3c(=O)nc(N4CCOCC4)oc23)cc1 , no comment.
Output line: 107% (inactive)

Input line: State recorded growth with MDA-MB-435 melanoma, entry NC(=O)SCC(=O)Nc1ccc(S(N)(=O)=O)cc1 , no comment.
Output line: 106% (inactive)

Input line: State recorded growth with MDA-MB-435 melanoma, entry CCCCCCCCCCCC[n+]1ccc(C(N)=O)cc1 , no comment.
Output line: 33.6% (inactive)

Input line: State recorded growth with MDA-MB-435 melanoma, entry O=c1cc(-c2ccccc2)[nH]n1-c1nc2ccccc2[nH]1 , no comment.
Output line: 51.1% (inactive)

Input line: State recorded growth with MDA-MB-435 melanoma, entry ClC(Cl)(Cl)c1nc2nccnc2[nH]1 , no comment.
Output line: 102% (inactive)

Input line: State recorded growth with MDA-MB-435 melanoma, entry CCN1CCC2(CC1)OC(c1ccccc1)C(c1ccccc1)O2 (centres undefined) , no comment.
Output line: 114% (inactive)

Input line: State recorded growth with MDA-MB-435 melanoma, entry COc1ccc(Oc2nc(NC3CCCC3)nc(Sc3ccc(OC)cc3)n2)cc1 , no comment.
Output line: 89% (inactive)

Input line: State recorded growth with MDA-MB-435 melanoma, entry Cc1cc(Nc2ccc(Cl)cc2)nc(NCCCNc2ccnc3cc(Cl)ccc23)n1 , no comment.
Output line: -88.6% (active)

Input line: State recorded growth with MDA-MB-435 melanoma, entry CCOCCOCCOCCOCCOCCOCCOCCOCCOCCO (tested in a mixture with another compound) , no comment.
Output line: 19.4% (inactive)

Input line: State recorded growth with MDA-MB-435 melanoma, entry Cc1cn(C2CCCCO2)c(=O)nc1NO (centres undefined) , no comment.
Output line: 97.6% (inactive)

Input line: State recorded growth with MDA-MB-435 melanoma, entry Cn1c(C(N)=O)cc2c1-c1nc(Nc3ccccc3)ncc1CCC2 , no comment.
Output line: 45% (inactive)

Entry source: PubChem BioAssay (NCI)
